Every entry's value here was drawn from PubChem BioAssay (NCI).

Here the recorded GI50 is given for each entry.
Tested on: NCI/ADR-RES ovarian
Test: NCI tumour cell line growth inhibition, 48 h

Past entries and their recorded results:
> print(dat)
                                        mol  quantity.measured  data.value
1        N#Cc1c(-c2ccc(Cl)cc2)n(O)c2ccccc12               GI50     1.43 µM
2  COc1cc(NCCCCN=C(N)NC(N)=NC(C)C)c2ncccc2c1               GI50    > 100 µM
3  C=C(C)[C@@H]1CC[C@]2(C)[C@H](C(=O)C=C3[C@@H]4C[C@](C)(C(=O)N5CCN(C)CC5)CC[C@]4(C)CC[C@]32C)[C@@]1(C)CCC#N               GI50     6.83 µM

Problem: Any idea what its GI50 is? The molecule is O=[N+]([O-])c1ccc(-c2nc(-c3ccccc3)c(-c3ccccc3)n2-c2ccccc2)cc1
Solution: 2.68 µM

====

Listed compounds paired with reported TGI
System: SK-OV-3 ovarian
Assay: NCI tumour cell line growth inhibition, 48 h

The cases that follow already have their TGI on record.
compound	TGI
COc1cc(/C=C/c2cc(/C=C/c3ccc(O)c(OC)c3)n(-c3c(C)cccc3C)c(=O)n2)ccc1O	3.37 µM
N#Cc1c(-c2ccco2)cc(-c2ccc(NCc3nc4ccccc4[nH]3)cc2)nc1N	> 100 µM
COc1ccc2nc3ccc(OC)cc3c(S(=O)(=O)Cc3ccc([N+](=O)[O-])cc3)c2c1	> 100 µM
CCOC(=O)C(=O)Nc1ccc(C)cc1C	> 100 µM
COc1cc2c(cc1OC)-c1cc3cc(OC)c(OC)cc3n1CC2	> 100 µM

Problem: Value wanted: TGI (SK-OV-3 ovarian) of entry O=C1CCC[C@]2(CCC[C@@H](O)C2)N1
Solution: > 100 µM

====

Reported TGI values follow for various compounds
System: UO-31 renal
Assay: NCI tumour cell line growth inhibition, 48 h
Where a SMILES comes first, the peptide text is derived from it. [ ]: non-standard residue; d: D form. The star is where a group is joined. AllylGly = C=CC[CH](N)C(=O)O; Boc = CC(C)(C)OC(=O)*; OtBu = CC(C)(C)O*

compound	TGI
CCOC(=O)CCC(NC(=O)c1ccc(Oc2nc3ccc(C(F)(F)F)cc3nc2-c2ccccc2)cc1)C(=O)OCC (centres undefined)	> 100 µM
C=CCC(NC(=O)C(CC(=O)OC(C)(C)C)NC(=O)OC(C)(C)C)C(=O)OC (centres undefined) (Boc-Asp(OtBu)-[AllylGly]-OMe; configuration not given here)	> 100 µM
COc1ccc(NC(=O)n2nc(N)c3ccccc32)cc1OC	> 100 µM
COc1cc(-c2oc3c(OC)c(O)c(OC)c(O)c3c(=O)c2OC)cc(O)c1OC	> 100 µM
Cc1cc2c(=O)n(-c3ccc(F)cc3)c(C)nc2c(C(=O)O)c1C	> 100 µM

Problem: Which TGI value belongs to CCN(CC)CCCNc1cccc2c(SCc3ccccc3)ccnc12 ?
Solution: 2.44 µM

====

Test system: CCRF-CEM leukemia
Assay: NCI tumour cell line growth inhibition, 48 h
quantity.measured: TGI

Problem: What does the record list as TGI for CC1(C23CC4CC(CC(C4)C2)C3)n2c(=O)n(-c3ccccc3)c(=O)n2C1(C)C12CC3CC(CC(C3)C1)C2 (stereo unspecified) ?
Solution: > 100 µM

Problem: # TGI lookup, item COC(=O)C(CCCC1(c2ccccc2)OCCO1)C(C)=O (stereo unspecified)
Solution: > 100 µM

Problem: Suppose we examine the compound CCCCCCCCCCCCCCCCCC1=NCCN1CS(=O)(=O)O ; what TGI value has been reported?
Solution: > 100 µM

Problem: Tell me the measured TGI of CC(OC(=O)NCn1cc(-c2ccccc2)nn1)c1ccccc1 (stereo unspecified) , please.
Solution: > 100 µM

Problem: What value of TGI has been recorded for this entry: COc1ccc2nc3ccc(OC)cc3c(S(=O)(=O)Cc3ccc([N+](=O)[O-])cc3)c2c1
Solution: > 100 µM

Problem: What value of measured TGI is listed for COc1ccc(/C(Cl)=C(\C=O)c2ccc([N+](=O)[O-])cc2)cc1OC ?
Solution: > 24.7 µM

Problem: Which TGI value belongs to O=C1CN2Cc3cc(N4CCOCC4)ccc3N=C2N1 ?
Solution: > 100 µM

Problem: Field request: TGI | item: S=C(N/N=C(/c1ccccc1)c1ccccn1)Nc1ccccc1Cl
Solution: > 38.1 µM

Problem: Look up TGI for this compound: NC(=NCCCOc1ccc(Cl)cc1)Nc1ccc(Cl)cc1
Solution: 6.74 µM

Problem: Any idea what TGI was measured for Cc1cc2c(=O)n(-c3ccc(F)cc3)c(C)nc2c(C(=O)O)c1C ?
Solution: > 100 µM

Problem: So what does the record say about TGI for CCSCC(N)C(=O)O (stereo unspecified) ?
Solution: > 100 µM

====

System: OVCAR-3 ovarian
Assay: NCI tumour cell line growth inhibition, 48 h
quantity.measured: log10(TGI) (log10 of the value in µM)
Record value = log10 of TGI given in µM.

compound	quantity.measured	data.value
NC(=NCCCOc1ccc(Cl)cc1)Nc1ccc(Cl)cc1	log10(TGI)	0.91
COc1ccc(/C=C2\C[C@H]3[C@@H]4CCC5=C[C@@H](N6CCCC6)CC[C@]5(C)[C@H]4CC[C@]3(C)[C@H]2O)cc1	log10(TGI)	0.92
CCCCc1c2c(nc3c1CCCC3O)/C(=C/c1ccccc1)CCC2 (configuration not stated)	log10(TGI)	1.56
C=C(C)[C@@H]1CC[C@]2(C)[C@H](C(=O)C=C3[C@@H]4C[C@](C)(C(=O)N5CCN(C)CC5)CC[C@]4(C)CC[C@]32C)[C@@]1(C)CCC#N	log10(TGI)	1.12
CC1OC(OC2C(O[C@H]3CC[C@@]4(C)[C@@H](CC[C@@H]5[C@@H]4CC[C@]4(C)[C@@H]6[C@H](C[C@@H]54)O[C@]4(CC[C@@H](C)CO4)[C@H]6C)C3)OC(CO)C(OC3OC(CO)C(O)C(OC4OCC(O)C(O)C4O)C3OC3OCC(O)C(O)C3O)C2O)C(O)C(O)C1O (some centres not stated)	log10(TGI)	0.50
C[C@H](Nc1c(O)c2c(c(O)c1Cl)C(=O)C=CC2=O)C(=O)Nc1ccc([N+](=O)[O-])cc1	log10(TGI)	0.44
CCCc1cc(=O)oc2c3c(c4c(c12)OC(C)(C)C=C4)O[C@@H](C)[C@H](C)C3=O	log10(TGI)	1.69
CCCCCCCC/C=C/CCCCCCCCC1=NCCN1CCO	log10(TGI)	1.41

Problem: Which log10(TGI) is listed for CC(C)[C@@]12C[C@@H](OC(=O)[C@H]3CO3)[C@@](C)(O1)[C@@H]1CC[C@@H](C)[C@H]1[C@@H]2OC(=O)/C=C/c1ccccc1 ?
Solution: 1.49

Problem: For the compound shown here, CCC1=CC2CN3CCc4c([nH]c5ccccc45)C(C(=O)OC)(C2)C13 (configuration not stated) , give the reported log10(TGI).
Solution: 2.03

Problem: So what's the measured log10(TGI) for this one? CCCCCCCC/C=C/CCCCCCCC1=NCC[N+]1(CCO)CCO
Solution: 0.65

====

Tested on: A549 NSCLC
Assay: NCI tumour cell line growth inhibition, 48 h
TGI values by entry

molecule	TGI
CC(C)(C)c1ccc(-c2nc3ccc([N+](=O)[O-])cc3c(=O)o2)cc1	> 100 µM
C/C(=N\NC(=O)c1ccncc1)c1ccc2ccccc2c1O	> 100 µM
O=C(O)C1C(C(=O)Nc2ccc3c(c2)Cc2ccccc2-3)C2(Cl)C(Cl)=C(Cl)C1(Cl)C2(Cl)Cl (stereo not given)	> 100 µM

Problem: Form field - read-out: TGI; system: A549 NSCLC; submitted item: Cn1c(=O)cc(NCc2ccc(Cl)cc2)[nH]c1=O
Solution: > 100 µM

Problem: Item: CC/C=C1\N=C(c2ccc(Cl)cc2)OC1=O Test system: A549 NSCLC Read-out: TGI Value: ?
Solution: > 100 µM

Problem: Lab request: please report TGI under test system A549 NSCLC for CC1OC(OC2C(O[C@H]3CC[C@@]4(C)[C@@H](CC[C@@H]5[C@@H]4CC[C@]4(C)[C@@H]6[C@H](C[C@@H]54)O[C@]4(CC[C@@H](C)CO4)[C@H]6C)C3)OC(CO)C(OC3OC(CO)C(O)C(OC4OCC(O)C(O)C4O)C3OC3OCC(O)C(O)C3O)C2O)C(O)C(O)C1O (stereo not given in full)
Solution: 1.05 µM

Problem: Observed TGI on A549 NSCLC for CCCCCCCCCCCCCCCCCC1=NCCN1CS(=O)(=O)O , please.
Solution: 31.2 µM

Problem: Hello, I am looking for reported TGI with A549 NSCLC for NC(=O)N1N=C2c3ccccc3CC[C@@H]2C1c1ccccc1 (stereo not given in full) . Could you help?
Solution: > 100 µM

Problem: Give recorded TGI with A549 NSCLC for the following molecule: O=c1[nH]c(=O)n(C2CC(O)C(CO)O2)cc1OCCCc1ccccc1 (stereo not given)
Solution: > 100 µM

Problem: Item: COCC1CCCN1c1ccc(/C=C(/C#N)C(N)=S)cc1 (stereo not given) Test system: A549 NSCLC Read-out: TGI Value: ?
Solution: > 100 µM

Problem: Lab request: please report TGI under test system A549 NSCLC for Cc1cccc(Oc2nccc(-c3c(-c4ccc(F)cc4)ncn3C3CCNCC3)n2)c1C
Solution: > 25 µM

Problem: Give TGI (A549 NSCLC) of the following molecule: CC1(c2nc3cc(Cl)c(Cl)cc3[nH]2)CCC(CO)C(C)(C)O1 (stereo not given)
Solution: > 100 µM

Problem: Under A549 NSCLC: TGI value of CC(OC(=O)NCn1cc(-c2ccccc2)nn1)c1ccccc1 (stereo not given) ?
Solution: > 100 µM

Problem: Observed TGI on A549 NSCLC for Cc1cn(C2CCC(/C=N\O)O2)c(=O)[nH]c1=O (stereo not given) , please.
Solution: > 100 µM

Problem: Query TGI on A549 NSCLC for COC(=O)c1ccc2c(c1)nc(-c1cc3ccccc3[nH]c1=O)n2-c1cc(C(C)(C)C)[nH]n1
Solution: > 100 µM

Problem: Request - read-out TGI | tested on A549 NSCLC | molecule Nc1c(-c2nc3ccccc3s2)c2ccc([N+](=O)[O-])cc2c(=O)n1-c1cccc(C(=O)O)c1
Solution: > 100 µM

Problem: Record lookup: for A549 NSCLC, what TGI belongs to COC1=CC(O)(CC(N)=O)c2ccccc2C1=O (stereo not given) ?
Solution: > 100 µM

Problem: Given the entry O=C1/C(=C\c2cccc(Oc3ccccc3)c2)S(=O)(=O)C(c2ccccc2)N1c1ccc(Cl)cc1 (stereo not given) , what TGI was observed with A549 NSCLC?
Solution: > 100 µM

Problem: # get_value(readout= TGI, system= A549 NSCLC) for CN(C)c1ccc(/C=C(\C#N)C(N)=C(C#N)C#N)cc1
Solution: > 100 µM

Problem: Record CC1(C)C(=O)C(C)(C)C12SSC1(S2)C(C)(C)C(=O)C1(C)C : what is its TGI with A549 NSCLC?
Solution: > 100 µM
